- assay.text: Half life in dog at 2 mg/kg, iv
- Format: ADME, organism-based, Canis lupus familiaris
- Set-up: dose 2 mg/kg, route intravenous
- run.parameters: in vivo
property: half-life

1) O=C(NCC(=O)N1CC[C@H](N[C@H]2CC[C@@](O)(c3ccc(-c4ncccn4)cn3)CC2)C1)c1cccc(C(F)(F)F)c1 = 2.4 h

====

- assay.text: AUC in dog at 10 mg/kg, po
- Type: ADME, organism-based, Canis lupus familiaris
- Design: dose 10 mg/kg, route oral
- run.parameters: plasma
property: AUC (µM·h)

1. O=C(NCC(=O)N1CC[C@H](N[C@H]2CC[C@@](O)(c3ccc(-c4ncccn4)cn3)CC2)C1)c1cccc(C(F)(F)F)c1 [PF-4136309] = 35.6

====

- assay.text: Clearance in dog at 2 mg/kg, iv
- Type: ADME, organism-based, Canis lupus familiaris
- Parameters: dose 2 mg/kg, route intravenous
- run.parameters: in vivo
property: clearance (mL/min/kg)

1. O=C(NCC(=O)N1CC[C@H](N[C@H]2CC[C@@](O)(c3ccc(-c4ncccn4)cn3)CC2)C1)c1cccc(C(F)(F)F)c1 = 7.67

====

- assay.text: Cmax in rat at 10 mg/kg, po
- Type: ADME, organism-based
- Set-up: dose 10 mg/kg, route oral
- run.parameters: in vivo
property: Cmax (nM)

1) O=C(NCC(=O)N1CC[C@H](N[C@H]2CC[C@@](O)(c3ccc(-c4ncccn4)cn3)CC2)C1)c1cccc(C(F)(F)F)c1 = 610

====

- study.system: C-C chemokine receptor type 2 (Mus musculus, UniProt P51683)
- Sequence (P51683 whole entry): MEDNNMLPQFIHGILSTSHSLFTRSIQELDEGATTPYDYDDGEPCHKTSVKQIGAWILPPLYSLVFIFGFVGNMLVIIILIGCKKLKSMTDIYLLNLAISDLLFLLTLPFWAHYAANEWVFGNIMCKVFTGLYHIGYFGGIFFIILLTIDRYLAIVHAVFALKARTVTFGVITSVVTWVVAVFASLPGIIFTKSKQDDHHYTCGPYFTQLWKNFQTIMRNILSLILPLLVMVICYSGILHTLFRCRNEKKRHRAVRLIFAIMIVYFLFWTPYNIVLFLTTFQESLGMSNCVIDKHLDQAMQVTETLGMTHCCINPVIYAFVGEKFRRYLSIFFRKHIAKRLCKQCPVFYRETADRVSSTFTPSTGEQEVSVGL
- assay.text: Antagonist activity at mouse CCR2
- Format: functional
property: IC50

1) O=C(NCC(=O)N1CC[C@H](N[C@H]2CC[C@@](O)(c3ccc(-c4ncccn4)cn3)CC2)C1)c1cccc(C(F)(F)F)c1 [PF-4136309] = 0.016 µM

====

Quick reference: inhibition at 10 µM of the listed items.
- study.system: hERG (KCNH2) (Homo sapiens)
- Sequence (Q12809 whole entry): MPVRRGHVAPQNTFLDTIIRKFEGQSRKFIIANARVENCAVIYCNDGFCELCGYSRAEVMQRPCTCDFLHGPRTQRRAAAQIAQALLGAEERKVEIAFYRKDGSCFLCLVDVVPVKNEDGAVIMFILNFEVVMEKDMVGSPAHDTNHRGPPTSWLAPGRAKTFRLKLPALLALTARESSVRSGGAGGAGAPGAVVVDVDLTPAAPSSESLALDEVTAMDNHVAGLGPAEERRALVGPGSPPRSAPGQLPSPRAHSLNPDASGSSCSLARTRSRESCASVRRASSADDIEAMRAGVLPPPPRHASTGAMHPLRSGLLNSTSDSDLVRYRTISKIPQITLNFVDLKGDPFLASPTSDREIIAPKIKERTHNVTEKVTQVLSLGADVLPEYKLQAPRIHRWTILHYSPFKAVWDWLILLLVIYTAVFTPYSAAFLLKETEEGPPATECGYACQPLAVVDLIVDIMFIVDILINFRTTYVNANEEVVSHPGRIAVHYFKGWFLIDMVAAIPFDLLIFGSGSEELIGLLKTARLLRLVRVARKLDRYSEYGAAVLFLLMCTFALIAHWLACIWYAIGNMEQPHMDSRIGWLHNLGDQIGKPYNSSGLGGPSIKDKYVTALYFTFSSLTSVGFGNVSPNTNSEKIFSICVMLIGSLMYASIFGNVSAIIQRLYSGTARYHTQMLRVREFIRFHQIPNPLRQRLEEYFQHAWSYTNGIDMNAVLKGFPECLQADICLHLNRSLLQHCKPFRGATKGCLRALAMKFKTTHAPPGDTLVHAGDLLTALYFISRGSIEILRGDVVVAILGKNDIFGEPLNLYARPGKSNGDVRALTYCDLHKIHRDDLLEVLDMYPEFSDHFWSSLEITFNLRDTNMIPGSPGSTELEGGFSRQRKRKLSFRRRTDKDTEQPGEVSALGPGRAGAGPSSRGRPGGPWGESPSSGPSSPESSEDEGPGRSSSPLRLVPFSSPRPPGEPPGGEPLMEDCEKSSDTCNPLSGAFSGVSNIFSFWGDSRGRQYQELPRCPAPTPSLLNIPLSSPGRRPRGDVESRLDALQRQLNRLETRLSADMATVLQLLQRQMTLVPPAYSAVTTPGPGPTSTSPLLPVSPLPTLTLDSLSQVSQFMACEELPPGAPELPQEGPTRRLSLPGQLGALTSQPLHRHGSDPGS
- assay.text: Inhibition of human ERG at 10 uM by patch clamp assay
property: inhibition at 10 µM (%)

1. O=C(NCC(=O)N1CC[C@H](N[C@H]2CC[C@@](O)(c3ccc(-c4ncccn4)cn3)CC2)C1)c1cccc(C(F)(F)F)c1 = 35
2. O=C(NCC(=O)N1CC[C@H](N[C@H]2CC[C@@](O)(c3ccc(-c4cnccn4)cn3)CC2)C1)c1cccc(C(F)(F)F)c1 = 70
3. O=C(NCC(=O)N1CC[C@H](N[C@H]2CC[C@@](O)(c3ccc(-c4nccs4)cn3)CC2)C1)c1cccc(C(F)(F)F)c1 = 85
4. Cc1ccc([C@]2(O)CC[C@H](N[C@H]3CCN(C(=O)CNC(=O)c4cccc(C(F)(F)F)c4)C3)CC2)nc1 = 71
5. O=C(NCC(=O)N1CC[C@H](N[C@H]2CC[C@@](O)(c3ccccn3)CC2)C1)c1cccc(C(F)(F)F)c1 = 34

====

- study.system: C-C chemokine receptor type 2 (Homo sapiens, UniProt P41597)
- Sequence (P41597 whole entry): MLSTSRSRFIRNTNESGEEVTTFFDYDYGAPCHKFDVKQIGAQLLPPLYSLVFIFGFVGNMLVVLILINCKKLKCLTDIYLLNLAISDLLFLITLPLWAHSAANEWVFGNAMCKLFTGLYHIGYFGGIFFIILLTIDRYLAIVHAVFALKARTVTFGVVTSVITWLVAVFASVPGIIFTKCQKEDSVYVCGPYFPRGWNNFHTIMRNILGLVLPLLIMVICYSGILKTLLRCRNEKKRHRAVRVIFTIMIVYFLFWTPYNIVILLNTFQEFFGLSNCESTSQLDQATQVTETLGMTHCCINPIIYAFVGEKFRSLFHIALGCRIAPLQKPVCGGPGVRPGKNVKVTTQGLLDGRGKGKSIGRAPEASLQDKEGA
pIC50: −log10 of the molar value.
property: pIC50

1. CN([C@H]1CCN(C(=O)CNC(=O)c2cccc(C(F)(F)F)c2)C1)[C@H]1CC[C@@H](c2ccccc2)CC1 = 7.08
2. O=C(C1CCN(c2cccc(C(F)(F)F)n2)CC1)N1CC[C@H](N[C@H]2CC[C@@](O)(c3ccc(-c4ncccn4)cn3)CC2)C1 = 8.35
3. O=C(C1CCN(c2cc(C(F)(F)F)ccn2)CC1)N1CC[C@H](N[C@H]2CC[C@@](O)(c3ccc(-c4ncccn4)cn3)CC2)C1 = 8.48
4. O=C(C1CCN(c2cc(C(F)(F)F)ncn2)CC1)N1CC[C@H](N[C@H]2CC[C@@](O)(c3ccc(-c4ncccn4)cn3)CC2)C1 = 8.00

====

- assay.text: Half life in human liver microsomes
- Format: ADME, Microsome
property: half-life (h)

1) O=C(NCC(=O)N1CC[C@H](N[C@H]2CC[C@@](O)(c3ccc(-c4ncccn4)cn3)CC2)C1)c1cccc(C(F)(F)F)c1 = 1.48

====

- assay.text: Tmax in rat at 10 mg/kg, po
- Format: ADME, organism-based
- Set-up: dose 10 mg/kg, route oral
- run.parameters: in vivo
property: Tmax (h)

1) O=C(NCC(=O)N1CC[C@H](N[C@H]2CC[C@@](O)(c3ccc(-c4ncccn4)cn3)CC2)C1)c1cccc(C(F)(F)F)c1 [PF-4136309] = 1.2

====

- assay.text: Cmax in dog at 10 mg/kg, po
- Assay type: ADME, organism-based, Canis lupus familiaris
- Parameters: dose 10 mg/kg, route oral
- run.parameters: in vivo
property: Cmax (µM)

1) O=C(NCC(=O)N1CC[C@H](N[C@H]2CC[C@@](O)(c3ccc(-c4ncccn4)cn3)CC2)C1)c1cccc(C(F)(F)F)c1 [PF-4136309] = 20

====

- study.system: Voltage-gated inwardly rectifying potassium channel KCNH2 (Homo sapiens, UniProt Q12809)
- assay.text: Inhibition of human ERG by patch clamp assay
pIC50: −log10 of the molar value.
property: pIC50

1) O=C(NCC(=O)N1CC[C@H](N[C@H]2CC[C@@](O)(c3ccc(-c4ncccn4)cn3)CC2)C1)c1cccc(C(F)(F)F)c1 [PF-4136309] = 4.70

====

- study.system: C-C chemokine receptor type 2 (Rattus norvegicus)
- Sequence (O55193 whole entry): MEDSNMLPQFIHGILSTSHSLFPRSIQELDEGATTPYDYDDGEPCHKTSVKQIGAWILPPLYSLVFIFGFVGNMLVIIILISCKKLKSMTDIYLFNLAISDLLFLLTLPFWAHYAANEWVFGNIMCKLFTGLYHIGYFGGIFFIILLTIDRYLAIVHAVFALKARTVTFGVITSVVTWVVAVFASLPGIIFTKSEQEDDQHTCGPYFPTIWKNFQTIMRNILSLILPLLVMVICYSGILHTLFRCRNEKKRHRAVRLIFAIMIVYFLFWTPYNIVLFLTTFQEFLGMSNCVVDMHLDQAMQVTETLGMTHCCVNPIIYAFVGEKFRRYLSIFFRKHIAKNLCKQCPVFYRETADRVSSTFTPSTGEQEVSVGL
- assay.text: Antagonist activity at rat CCR2
- Assay type: functional
pIC50: −log10 of the molar value.
property: pIC50

1) O=C(NCC(=O)N1CC[C@H](N[C@H]2CC[C@@](O)(c3ccc(-c4ncccn4)cn3)CC2)C1)c1cccc(C(F)(F)F)c1 = 8.55

====

Measured log10 of IC50 on C-C chemokine receptor type 2 (Homo sapiens) follows.
property: log10 of IC50 (log10 of the value in nM)

1) N#Cc1ccnc(N2CCC(C(=O)N3CC[C@H](N[C@H]4CC[C@@](O)(c5ccc(-c6ncccn6)cn5)CC4)C3)CC2)c1 = 1.04
2) O=C(C1CCN(c2cccc(C(F)(F)F)c2)CC1)N1CC[C@H](N[C@H]2CC[C@@](O)(c3ccc(-c4ncccn4)cn3)CC2)C1 = 0.56
3) O=C(C1CCN(c2nccc(C(F)(F)F)n2)CC1)N1CC[C@H](N[C@H]2CC[C@@](O)(c3ccc(-c4ncccn4)cn3)CC2)C1 = 0.73
4) O=C(NCC(=O)N1CC[C@H](N[C@H]2CC[C@@](O)(c3ccccc3)CC2)C1)c1cccc(C(F)(F)F)c1 = 1.81
5) O=C(NCC(=O)N1CC[C@H](N[C@H]2CC[C@@H](c3ccccc3)CC2)C1)c1cccc(C(F)(F)F)c1 = 1.54

====

pIC50: −log10 of the molar value.
Measured pIC50 on C-C chemokine receptor type 2 (Homo sapiens, UniProt P41597) follows.
property: pIC50

1) O=C(NCC(=O)N1CC[C@@H](N[C@H]2CC[C@@H](c3ccccc3)CC2)C1)c1cccc(C(F)(F)F)c1 = 6.07
2) COc1ccc([C@]2(O)CC[C@H](N[C@H]3CCN(C(=O)CNC(=O)c4cccc(C(F)(F)F)c4)C3)CC2)cn1 = 7.02
3) O=C(N1CC[C@H](N[C@H]2CC[C@@](O)(c3ccc(-c4ncccn4)cn3)CC2)C1)C1(O)CCN(c2cc(C(F)(F)F)ccn2)CC1 = 8.48
4) O=C(NCC(=O)N1CC[C@H](N[C@H]2CC[C@@](O)(c3nccs3)CC2)C1)c1cccc(C(F)(F)F)c1 = 7.74

====

- assay.text: Half life in rat at 10 mg/kg, po
- Assay type: ADME, organism-based
- Parameters: dose 10 mg/kg, route oral
- run.parameters: in vivo
property: half-life (min)

1) O=C(NCC(=O)N1CC[C@H](N[C@H]2CC[C@@](O)(c3ccc(-c4ncccn4)cn3)CC2)C1)c1cccc(C(F)(F)F)c1 = 150

====

- assay.text: Half life in dog at 10 mg/kg, po
- Format: ADME, organism-based, Canis lupus familiaris
- Design: dose 10 mg/kg, route oral
- run.parameters: in vivo
property: half-life

1. O=C(NCC(=O)N1CC[C@H](N[C@H]2CC[C@@](O)(c3ccc(-c4ncccn4)cn3)CC2)C1)c1cccc(C(F)(F)F)c1 = 3.2 h
